Answer each item with its documented Activity.
- Target or system: Gastrin-releasing peptide receptor (Mus musculus) (UniProt P21729)
- Sequence (P21729 whole entry): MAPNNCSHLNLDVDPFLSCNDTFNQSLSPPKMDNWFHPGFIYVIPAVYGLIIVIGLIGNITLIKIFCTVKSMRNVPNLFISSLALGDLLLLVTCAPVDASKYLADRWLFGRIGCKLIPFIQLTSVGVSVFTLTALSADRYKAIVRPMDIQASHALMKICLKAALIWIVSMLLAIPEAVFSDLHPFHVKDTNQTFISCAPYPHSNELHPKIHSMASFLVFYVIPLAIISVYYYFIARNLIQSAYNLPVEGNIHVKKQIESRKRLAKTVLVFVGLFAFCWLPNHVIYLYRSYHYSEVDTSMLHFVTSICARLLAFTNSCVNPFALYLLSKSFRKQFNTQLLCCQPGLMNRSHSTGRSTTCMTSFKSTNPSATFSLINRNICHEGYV
- Test name: Inhibition of 6 nM bombesin induced [3H]thymidine incorporation measured in swiss 3T3 cells using a mitogenicity assay
- Format: functional, cell-based
Where a SMILES comes first, the peptide text is derived from it. [ ]: non-standard residue; d: D form. The star is where a group is joined. dProψ(CH2NH)PheNH2 = NC(=O)[C@H](Cc1ccccc1)NC[C@H]1CCCN1*; Propanoyl(3-(4-MeO-Ph)) = COc1ccc(CCC(=O)*)cc1
Just the number please, in nM, no unit attached.

Kindly note the recorded Activity for COc1ccc(CCC(=O)N[C@@H](Cc2c[nH]cn2)C(=O)N[C@@H](Cc2c[nH]c3ccccc23)C(=O)N[C@@H](C)C(=O)N[C@H](C(=O)N[C@H](C)C(=O)N[C@@H](Cc2c[nH]cn2)C(=O)N2CCC[C@@H]2CN[C@@H](Cc2ccccc2)C(N)=O)C(C)C)cc1 ({Propanoyl(3-(4-MeO-Ph))}-HWAV[dA]H-{dProψ(CH2NH)PheNH2}) , which is 0.3

Kindly note the recorded Activity for CC(C)[C@H](NC(=O)[C@H](C)NC(=O)[C@H](Cc1c[nH]c2ccccc12)NC(=O)[C@H](Cc1c[nH]cn1)NC(=O)C1CCc2ccccc2C1)C(=O)N[C@H](C)C(=O)N[C@@H](Cc1c[nH]cn1)C(=O)N1CCC[C@@H]1CN[C@@H](Cc1ccccc1)C(N)=O (some centres undefined) , which is 4

Kindly note the recorded Activity for CC(NC(=O)[C@H](Cc1csc2ccccc12)NC(=O)[C@H](Cc1c[nH]cn1)NC(=O)CCc1ccccc1)C(=O)N[C@H](C(=O)NC(C)C(=O)N[C@@H](Cc1c[nH]cn1)C(=O)N1CCC[C@@H]1CN[C@@H](Cc1ccccc1)C(N)=O)C(C)C (stereo in doubt) , which is 430

Kindly note the recorded Activity for `CC(C)[C@H](NC(=O)[C@H](C)NC(=O)[C@H](Cc1c[nH]c2ccccc12)NC(=O)[C@H](Cc1c[nH]cn1)NC(=O)Cc1cccc(C(F)(F)F)c1)C(=O)N[C@H](C)C(=O)N[C@@H](Cc1c[nH]cn1)C(=O)N1CCC[C@@H]1CN[C@@H](Cc1ccccc1)C(N)=O` , which is 260
